conditions: 303.15 K; 100 kPa; Liquid; Vibrating tube method
mass density by entry:
State just the number; it will be interpreted in kg/m3.

- compound: "CCCCCCn1cc[n+](C)c1C.O=S(=O)([N-]S(=O)(=O)C(F)(F)F)C(F)(F)F"
  measured-quantity: "mass density"
  recorded-number: 1355.1

[in] Give mass density for the following compound: `CCCCCC[n+]1ccn(C)c1.O=S(=O)([N-]S(=O)(=O)C(F)(F)F)C(F)(F)F`
[out] 1367.3

[in] Give mass density for the following compound: `CCn1cc[n+](C)c1.O=S(=O)([N-]S(=O)(=O)C(F)(F)F)C(F)(F)F`
[out] 1513.9

[in] Give mass density for the following compound: CCCCCCCC[P+](CC)(CC)CC.O=[N+]([O-])c1cn[n-]c1 [triethyloctylphosphonium 4-nitropyrazolide]
[out] 1028.5

[in] Give mass density for the following compound: `CCCC[n+]1ccn(C)c1.O=S(=O)([N-]S(=O)(=O)C(F)(F)F)C(F)(F)F`
[out] 1432
